// provenance: patent US20230218581A1

assay: DPTIP pharmacokinetics in mice; format: in vivo; conditions: mouse, plasma; 10 mg/kg PO; read-out: oral bioavailability F
propertyName: bioavailability

Input: So what's the measured bioavailability for this one? COc1cc(-c2nc(-c3cccs3)c(-c3ccccc3)[nH]2)cc(OC)c1O
Output: < 5%
